The values you see were collected from PubChem BioAssay.

Protocol notes: TLR3 IRF3 reporter activation blockers – cell-based, poly I:C stimulus, luciferase, 10K MLSCN set, primary screen (AID 602277)
Run parameters: HEK293-TLR3 RL24 IRF3 luciferase reporter, at 10 µM, stronger effect = higher value
Field: inhibition. Provide a value for each of the compounds that follow.
Numbers only, in %.

Please review the following examples before continuing.
* COc1ccc(S(=O)(=O)n2nc(OC(=O)c3ccc(C)cc3)cc2N)cc1 | 19.2
* Cc1cc(=O)n2nc(N3CCC(C(=O)N4CCN(Cc5ccccc5)CC4)CC3)sc2n1 | 3.68
* O=C(NCCC1=CCCCC1)N[C@@H](Cc1ccccc1)C(=O)O | 0.553

Each compound below has a reported value. Please supply its inhibition.
1. CC(=O)Nc1ccc(S(=O)(=O)NCC2CCC(C(=O)NCCCN3CCCC3=O)CC2)cc1 (stereo unspecified)
2. O=C(OCC#CCSc1nc2ccccc2s1)c1ccco1
3. O=C(CCCC(=O)OCC(=O)NC1CCCC1)Nc1ccccn1
4. O=C(CCN1C(=O)c2ccccc2C1=O)NCCN1CCOCC1

1. 19.4
2. -21.9
3. 17.5
4. 20.7

Each compound below has a reported value. Please supply its inhibition.
1. O=S(=O)(c1ccc2c(c1)OCCO2)N1CCN(Cc2ccc3c(c2)OCO3)CC1
2. CCOCCCNC(=O)Cn1ncc2c(=O)oc3ccccc3c21

[25.6, 30.9]

Each compound below has a reported value. Please supply its inhibition.
1. Cc1cccc(-n2ncc3c(NCCCO)ncnc32)c1
2. O=C(CSc1ncnc2c1cnn2-c1ccccc1)Nc1ccccc1

1. -193
2. 23.8

---

Protocol notes: reduction of polyQ htt aggregates in cells – imaging, exon1htt(103Q)mCFP cells, high-content imaging, primary screen (AID 483);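 also: compound exposure lasted 3 days before fixation; percent of the per-plate median nuclei count of sample wells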
Run parameters: exon1htt(103Q)mCFP cell line, aggregate imaging, at 2 µM; measured here: cell count, toxicity
Outcome measure: nuclei count (%)
Give bare numbers, in %.

Please review the following examples before continuing.
- COc1cc(C(=O)N2CCN(c3cc(Cl)ccc3Cl)CC2)cc(OC)c1OC: 34.1
- COc1ccc(Cn2nnnc2C(c2cccs2)N2CCOCC2)cc1 (centres undefined): 98.8
- Fc1ccc(-c2ccc(-c3nn4c(-c5ccco5)nnc4s3)o2)cc1: 92.7
- CCCCSc1nnc([C@H](C)NC(=O)OC(C)(C)C)o1: 104
- C/C=C/COC(=O)c1[nH]c2c(c1C)C(=O)CC(c1ccco1)C2 (centres undefined): 3.3

Each molecule below has a reported value. Please supply its nuclei count.
1. O=C(NCc1nnc(SCC(=O)N2CCC(Cc3ccccc3)CC2)o1)c1ccccc1F
2. CC(=O)Nc1ccc(S(=O)(=O)Nc2nc3c(s2)CCCC3)cc1
3. CCCS(=O)(=O)N1CCN(C(=O)c2cccs2)CC1
4. COc1ccc(NC(=O)CSc2nnc(Cc3cccn3C)n2-c2ccc(F)cc2)cc1OC
5. C=CCn1c(=O)c(C(=O)Nc2ccccc2C(=O)OCC)c(O)c2ccccc21
6. Nc1sccc1C(=O)c1ccc(Cl)cc1
7. CCc1c(C(=O)N2CCOCC2)csc1C

[112, 95.3, 91, 92.7, 120, 92, 104]

---

Tested target: Alpha-2C adrenergic receptor (Homo sapiens)
Protocol notes: compounds altering alpha2C-coupled GIRK flux – cell-based, HEK293 alpha2C/GIRK1/2, thallium flux, primary screen (AID 624);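 also: slope of fluorescence ratio to pre-addition baseline per second over 15 to 24 s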
Run parameters: thallium flux BTC fluorescence, at 10 µM, actives lie on both sides
Doc: threshold 0.005 (exclusive). Items with slope beneath it return satisfied; others return not satisfied.

• Cc1[nH]c2ccccc2c1Cc1nnc(SCC(=O)NCc2ccco2)o1 = not satisfied
• CCOc1ccc(C(=O)Nc2ccc(N3CCN(C)CC3)cc2)cc1Br = satisfied
• CN(C)c1ccc(/C=C/c2ccncc2)cc1 = satisfied

Field: below-cutoff. Rule: recorded slope strictly less than 0.005. Subject: O=C(c1ccc2c(c1)OCCO2)C1CCN(C(=O)c2ccc(F)cc2)CC1
not satisfied

---

Protocol notes: inhibitors of TNFa-induced NFkB p65 translocation, primary screen, imaging, HUVEC, MLSMR starter and 10KST1 sets (AID 438);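 also: compound added about 3h40 before a 20 min TNFalpha stimulation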;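 as to inhibition: signal is the nuclear over cytoplasmic p65 intensity ratio per well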
Run parameters: HUVEC TNFa-induced p65 nuclear translocation; at 2 µM, stronger effect = higher value, 0% TNFa-plus-vehicle, 100% no-TNFa wells
Active and inactive are the calls of the source.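 The calls were made as follows: active = inhibition above 20% together with a positive visual image hit; inconclusive = visual image hit but inhibition not above 20%; inactive = no visual image hit.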
Outcome measure: inhibition

Please review the following examples before continuing.
* Cc1cc(C(=O)CSc2nc3ccccc3[nH]2)c(C)n1C | 5.3% (inactive)
* COc1ccc(C(=O)Nc2ccc(S(=O)(=O)Nc3onc(C)c3C)cc2)cc1 | 3.7% (inactive)
* CCOC(=O)CNC(=O)CSc1ncnc2c1cnn2Cc1ccccc1 | 12.6% (inactive)

Okay, next one:
Item: CCn1c2ccccc2c2cc(N)ccc21 | inhibition: -34.5% (inactive)

---

Field: cell count. Provide a value for each of the compounds that follow.
Protocol notes: inhibitors of TNFa-induced NFkB p65 translocation, primary screen, imaging, HUVEC, MLSMR starter and 10KST1 sets (AID 438);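 also: compound added about 3h40 before a 20 min TNFalpha stimulation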
Run parameters: HUVEC TNFa-induced p65 nuclear translocation; measured here: nuclei count (cytotoxicity indicator), at 2.08 µM
One number for each entry.

- O=C(COC(=O)c1ccccc1O)Nc1ccc(OC(F)F)cc1: 674
- CCn1nnc(NC(=O)c2ccccc2Br)n1: 229
- N#Cc1nc(COc2ccccc2)oc1NCCCn1ccnc1: 371

Each compound below has a reported value. Please supply its cell count.
1. CC(C)(C)SCCNC(=O)CSc1ccccc1
2. Cc1cc(C)cc(OCC(=O)NC2=NCCS2)c1
3. CCc1nnc2sc(-c3cc(-c4ccccc4)nc4ccccc34)nn12
4. O=C(NCCC1=CCCCC1)c1cc2c(s1)CS(=O)(=O)C2
5. COc1ccc(C(C(C(=O)c2ccco2)N2CCOCC2)N2CCOCC2)cc1 (stereo unspecified)

1: 636; 2: 311; 3: 267; 4: 610; 5: 534

---

Field: inhibition. Provide a value for each of the compounds that follow.
Protocol notes: inhibitors of TNFa-induced NFkB p65 translocation, primary screen, imaging, HUVEC, MLSMR starter and 10KST1 sets (AID 438);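 also: compound added about 3h40 before a 20 min TNFalpha stimulation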;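 as to inhibition: signal is the nuclear over cytoplasmic p65 intensity ratio per well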
Run parameters: HUVEC TNFa-induced p65 nuclear translocation; at 2 µM, stronger effect = higher value, 0% TNFa-plus-vehicle, 100% no-TNFa wells
One number for each entry, in %.

Please review the following examples before continuing.
• Cc1ccc(NC(=O)C2CCCN2S(=O)(=O)c2cccc3cccnc23)cc1F (stereo not given) = -1.1
• CCCc1cc(=O)[nH]c(/N=C(\N)Nc2ccccc2)n1 = 3.6
• Cc1noc(/C=C/N(C)C)c1S(=O)(=O)N1CCCC(C(=O)NCCC2=CCCCC2)C1 (stereo not given) = 0.9
• CC(=O)Nc1cccc(OCC(O)Cn2cnc3ccccc32)c1 (stereo not given) = -20.4
• O=C(O)CC1=C(O)C(=O)N(c2ccccc2)C1c1ccccc1 (stereo not given) = 1.1

Each compound below has a reported value. Please supply its inhibition.
1. O=C(CSc1nnc(-c2ccccc2Br)o1)Nc1cccc2ccccc12
2. O=C(Nc1cccc2ccccc12)N1CCOCC1
3. c1ccc(OCc2nc(-c3ccccc3)no2)cc1

[-12.1, -3.4, 2.6]

Each compound below has a reported value. Please supply its inhibition.
1. Cc1nnc(SCC(=O)N2CCN(S(=O)(=O)c3ccccc3)CC2)[nH]c1=O
2. O=C(c1cnn2c(C(F)F)cc(C3CC3)nc12)N1CCOCC1
3. Cn1c(-c2cc(Br)ccc2O)n[nH]c1=S
4. Cc1nnc2ccc(N3CCN(c4cccc(C(F)(F)F)c4)CC3)nn12
5. CCOc1ccc(C(C)=O)cc1COc1ccc(-n2cnnn2)cc1
6. S=c1[nH]nc(-c2ccccc2)n1C1C=CCCC1 (stereo not given)
7. COc1cc2c(cc1OC)C(C)N(C(=O)Cn1ncc3c1-c1ccccc1OC3)CC2 (stereo not given)
8. Cn1c(=O)c2c(nc3sccn32)n(C)c1=O

[9.4, -0.3, 5.5, 5.5, -8.7, 0.4, -4.8, 12.5]

---

Field: nuclei count. Provide a value for each of the molecules that follow.
Protocol notes: endothelial E-selectin expression blockers – imaging, HUVEC, immunofluorescence, MLSMR starter and 10KST1 sets, primary screen (AID 487);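 also: 100% = median nuclei count of all wells on the same plate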
Run parameters: HUVEC TNFalpha-induced E-selectin immunofluorescence imaging, at 2 µM; measured here: cell number, toxicity
Numbers only, in %.

Please review the following examples before continuing.
• Cc1cc2ncn(C(=O)c3c(-c4ccccc4)noc3C)c2cc1C = 99.7
• Cc1cccc(C)c1NC(=O)CS(=O)CC(=O)NC1CCCc2ccccc21 (centres undefined) = 108
• c1ccc2c(c1)nc(NC1CCCCC1)c1nncn12 = 113
• C/C=C/c1ccc(OCCn2cncn2)c(OC)c1 = 120
• C=CCn1c(SCC(=O)O)nnc1-c1cccc(Cl)c1 = 108
• COCCn1nnnc1C(c1cc2cc(OC)ccc2[nH]c1=O)N1CCC(Cc2ccccc2)CC1 (centres undefined) = 117
• CCN(CC)C(=O)CSc1nnc([C@@H](N)Cc2ccccc2)o1 = 96
• COc1cccc(NC(=O)N[C@@H](Cc2ccccc2)C(=O)O)c1 = 100

Okay, next one:
Item: O=C(O)c1ccc(COc2ccc(Cl)cc2)o1 | nuclei count: 88.3
